# assayTarget: Glycogen synthase kinase-3 beta (Homo sapiens) (UniProt P49841)
# Sequence (P49841 whole entry, looked up): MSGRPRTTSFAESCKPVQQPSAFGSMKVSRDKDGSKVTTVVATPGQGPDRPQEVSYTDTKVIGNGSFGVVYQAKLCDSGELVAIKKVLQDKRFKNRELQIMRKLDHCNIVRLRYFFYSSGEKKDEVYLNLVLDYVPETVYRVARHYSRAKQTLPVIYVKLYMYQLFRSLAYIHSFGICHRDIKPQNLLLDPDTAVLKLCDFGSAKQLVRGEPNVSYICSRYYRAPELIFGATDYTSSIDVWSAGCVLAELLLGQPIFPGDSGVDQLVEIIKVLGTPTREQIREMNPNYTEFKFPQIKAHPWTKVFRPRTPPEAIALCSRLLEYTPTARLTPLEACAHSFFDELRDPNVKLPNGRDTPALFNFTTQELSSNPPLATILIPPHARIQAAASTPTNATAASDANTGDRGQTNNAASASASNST
# protocolNotes: Inhibition of human GSK3-beta assessed as residual activity at 1 uM relative to control
testReadout: Activity (%)

CNS(=O)(=O)c1ccc2c(c1)/C(=C/c1cn(C)c3ccc(OC)cc13)C(=O)N2
90
Cn1cc(/C=C2\C(=O)Nc3ccc(S(N)(=O)=O)cc32)c2ccccc21
92
COc1ccc2[nH]cc(/C=C3\C(=O)Nc4ccc(S(N)(=O)=O)cc43)c2c1
79
COc1ccc2c(c1)c(/C=C1\C(=O)Nc3ccc(S(=O)(=O)N(C)C)cc31)cn2C
97
CN(C)S(=O)(=O)c1ccc2c(c1)/C(=C/c1cn(C)c3ccc(O)cc13)C(=O)N2
92
COc1ccc2c(c1)c(/C=C1\C(=O)Nc3ccc(S(N)(=O)=O)cc31)cn2C
83

###

# assayTarget: Mitogen-activated protein kinase kinase kinase 11 (Homo sapiens)
# protocolNotes: Inhibition of human MAP3K11 assessed as residual activity at 1 uM relative to control
testReadout: Activity (%)

a. CNS(=O)(=O)c1ccc2c(c1)/C(=C/c1cn(C)c3ccc(OC)cc13)C(=O)N2
b. COc1ccc2c(c1)c(/C=C1\C(=O)Nc3ccc(S(N)(=O)=O)cc31)cn2C
c. COc1ccc2[nH]cc(/C=C3\C(=O)Nc4ccc(S(N)(=O)=O)cc43)c2c1
# rank_down: sort by Activity, max first Rank them, then answer with their labels in that order.
a, b, c
(a: 55%, b: 38%, c: 25%)

P. CN(C)S(=O)(=O)c1ccc2c(c1)/C(=C/c1cn(C)c3ccc(O)cc13)C(=O)N2
Q. Cn1cc(/C=C2\C(=O)Nc3ccc(S(N)(=O)=O)cc32)c2ccccc21
When P and Q are compared, which has the higher number for Activity? Output the label that corresponds to your choice.
P
(P: 51%, Q: 12%)

###

# assayTarget: Mitogen-activated protein kinase kinase kinase 7 (Homo sapiens) (UniProt O43318)
# Sequence (whole entry): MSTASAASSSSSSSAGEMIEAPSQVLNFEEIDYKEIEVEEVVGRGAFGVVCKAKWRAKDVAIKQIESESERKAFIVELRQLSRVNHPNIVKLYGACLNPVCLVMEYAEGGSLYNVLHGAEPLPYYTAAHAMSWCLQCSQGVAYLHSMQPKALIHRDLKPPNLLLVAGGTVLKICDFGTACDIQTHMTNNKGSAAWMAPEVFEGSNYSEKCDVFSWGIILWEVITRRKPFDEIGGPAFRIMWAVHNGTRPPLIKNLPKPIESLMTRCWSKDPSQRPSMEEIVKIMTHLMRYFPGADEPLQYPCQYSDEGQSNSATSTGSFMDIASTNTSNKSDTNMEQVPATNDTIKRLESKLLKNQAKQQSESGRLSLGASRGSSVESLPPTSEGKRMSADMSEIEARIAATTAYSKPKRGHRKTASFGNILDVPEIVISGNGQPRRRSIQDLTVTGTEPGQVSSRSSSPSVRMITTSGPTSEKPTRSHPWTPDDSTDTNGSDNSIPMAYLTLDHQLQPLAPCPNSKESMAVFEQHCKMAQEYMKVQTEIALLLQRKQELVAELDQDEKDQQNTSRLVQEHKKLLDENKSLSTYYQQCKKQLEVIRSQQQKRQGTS
# protocolNotes: Inhibition of human MAP3K7 assessed as residual activity at 1 uM relative to control
testReadout: Activity (%)

CN(C)S(=O)(=O)c1ccc2c(c1)/C(=C/c1cn(C)c3ccc(O)cc13)C(=O)N2
92
CNS(=O)(=O)c1ccc2c(c1)/C(=C/c1cn(C)c3ccc(OC)cc13)C(=O)N2
95
Cn1cc(/C=C2\C(=O)Nc3ccc(S(N)(=O)=O)cc32)c2ccccc21
63
COc1ccc2c(c1)c(/C=C1\C(=O)Nc3ccc(S(N)(=O)=O)cc31)cn2C
89
COc1ccc2[nH]cc(/C=C3\C(=O)Nc4ccc(S(N)(=O)=O)cc43)c2c1
64
COc1ccc2c(c1)c(/C=C1\C(=O)Nc3ccc(S(=O)(=O)N(C)C)cc31)cn2C
88

###

# assayTarget: Myosin light chain kinase, smooth muscle (Homo sapiens) (UniProt Q15746)
# Sequence (Q15746 whole entry): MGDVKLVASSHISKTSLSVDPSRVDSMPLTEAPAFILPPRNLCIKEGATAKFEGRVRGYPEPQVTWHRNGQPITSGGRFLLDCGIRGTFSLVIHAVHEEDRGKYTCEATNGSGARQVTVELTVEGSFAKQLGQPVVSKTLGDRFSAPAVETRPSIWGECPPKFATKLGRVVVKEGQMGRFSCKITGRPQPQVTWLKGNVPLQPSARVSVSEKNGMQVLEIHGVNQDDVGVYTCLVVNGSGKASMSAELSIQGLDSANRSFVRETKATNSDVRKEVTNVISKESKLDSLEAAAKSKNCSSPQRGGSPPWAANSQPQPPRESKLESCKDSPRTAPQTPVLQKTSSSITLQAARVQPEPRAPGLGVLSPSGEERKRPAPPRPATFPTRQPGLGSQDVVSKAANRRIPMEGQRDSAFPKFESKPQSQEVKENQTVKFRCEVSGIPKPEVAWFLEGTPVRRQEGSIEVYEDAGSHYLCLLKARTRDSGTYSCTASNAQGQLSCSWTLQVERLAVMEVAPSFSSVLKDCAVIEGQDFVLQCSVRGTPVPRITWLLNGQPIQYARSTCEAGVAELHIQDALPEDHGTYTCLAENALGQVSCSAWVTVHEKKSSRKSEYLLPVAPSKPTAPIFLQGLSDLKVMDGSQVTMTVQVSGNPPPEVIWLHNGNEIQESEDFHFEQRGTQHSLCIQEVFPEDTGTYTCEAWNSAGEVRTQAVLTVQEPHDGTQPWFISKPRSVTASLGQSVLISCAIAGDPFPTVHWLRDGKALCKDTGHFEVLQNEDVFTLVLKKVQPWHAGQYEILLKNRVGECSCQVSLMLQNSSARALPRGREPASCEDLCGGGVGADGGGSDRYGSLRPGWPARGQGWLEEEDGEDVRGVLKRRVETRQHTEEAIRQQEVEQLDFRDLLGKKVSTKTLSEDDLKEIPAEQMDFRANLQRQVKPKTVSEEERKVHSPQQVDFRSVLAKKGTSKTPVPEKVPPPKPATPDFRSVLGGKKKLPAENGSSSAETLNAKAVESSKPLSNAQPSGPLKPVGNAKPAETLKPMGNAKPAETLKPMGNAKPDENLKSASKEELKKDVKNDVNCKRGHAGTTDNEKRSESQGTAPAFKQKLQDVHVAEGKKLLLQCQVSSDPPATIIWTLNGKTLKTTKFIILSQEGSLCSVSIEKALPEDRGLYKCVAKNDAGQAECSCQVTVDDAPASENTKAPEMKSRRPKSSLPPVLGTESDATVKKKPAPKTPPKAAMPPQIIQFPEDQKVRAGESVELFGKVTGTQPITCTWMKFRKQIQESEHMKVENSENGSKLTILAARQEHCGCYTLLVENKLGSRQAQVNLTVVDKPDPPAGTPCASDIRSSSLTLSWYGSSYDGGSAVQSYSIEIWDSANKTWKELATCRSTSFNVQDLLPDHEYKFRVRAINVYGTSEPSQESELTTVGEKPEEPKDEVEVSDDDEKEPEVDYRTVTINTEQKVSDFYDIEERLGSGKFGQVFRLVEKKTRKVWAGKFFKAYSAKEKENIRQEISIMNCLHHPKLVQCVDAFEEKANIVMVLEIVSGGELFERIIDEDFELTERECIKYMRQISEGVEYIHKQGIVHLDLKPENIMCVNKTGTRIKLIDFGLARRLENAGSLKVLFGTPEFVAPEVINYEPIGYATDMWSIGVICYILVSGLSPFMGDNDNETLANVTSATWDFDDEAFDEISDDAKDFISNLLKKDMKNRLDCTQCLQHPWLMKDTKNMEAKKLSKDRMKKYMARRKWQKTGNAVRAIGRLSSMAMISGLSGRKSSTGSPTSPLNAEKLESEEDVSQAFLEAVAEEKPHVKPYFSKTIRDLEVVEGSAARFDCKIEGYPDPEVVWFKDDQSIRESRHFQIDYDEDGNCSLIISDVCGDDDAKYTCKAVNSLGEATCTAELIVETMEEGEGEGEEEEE
# protocolNotes: Inhibition of human MYLK assessed as residual activity at 0.1 uM relative to control
testReadout: Activity (%)

Cn1cc(/C=C2\C(=O)Nc3ccc(S(N)(=O)=O)cc32)c2ccccc21
97
COc1ccc2[nH]cc(/C=C3\C(=O)Nc4ccc(S(N)(=O)=O)cc43)c2c1
94
CN(C)S(=O)(=O)c1ccc2c(c1)/C(=C/c1cn(C)c3ccc(O)cc13)C(=O)N2
91
CNS(=O)(=O)c1ccc2c(c1)/C(=C/c1cn(C)c3ccc(OC)cc13)C(=O)N2
92
COc1ccc2c(c1)c(/C=C1\C(=O)Nc3ccc(S(N)(=O)=O)cc31)cn2C
94
COc1ccc2c(c1)c(/C=C1\C(=O)Nc3ccc(S(=O)(=O)N(C)C)cc31)cn2C
94

###

# assayTarget: Proto-oncogene tyrosine-protein kinase Src (Homo sapiens) (UniProt P12931)
# Sequence (P12931 2-536 limits assumed): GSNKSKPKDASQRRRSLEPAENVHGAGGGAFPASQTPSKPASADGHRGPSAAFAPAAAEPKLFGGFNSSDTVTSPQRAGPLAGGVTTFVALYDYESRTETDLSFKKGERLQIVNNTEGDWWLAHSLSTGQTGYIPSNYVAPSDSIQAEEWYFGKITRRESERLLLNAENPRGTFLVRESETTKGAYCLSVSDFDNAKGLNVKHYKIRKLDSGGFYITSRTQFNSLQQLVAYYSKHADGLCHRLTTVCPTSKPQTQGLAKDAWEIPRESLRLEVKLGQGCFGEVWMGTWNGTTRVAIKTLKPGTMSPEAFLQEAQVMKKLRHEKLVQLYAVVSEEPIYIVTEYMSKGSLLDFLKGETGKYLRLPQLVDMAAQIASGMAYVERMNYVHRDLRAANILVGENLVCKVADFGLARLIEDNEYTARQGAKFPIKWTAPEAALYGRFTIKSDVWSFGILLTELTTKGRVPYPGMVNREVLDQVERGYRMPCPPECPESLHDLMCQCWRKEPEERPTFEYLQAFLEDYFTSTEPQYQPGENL
# protocolNotes: Inhibition of human GST-HIS-tagged SRC assessed as residual activity at 1 uM relative to control
testReadout: Activity (%)

COc1ccc2c(c1)c(/C=C1\C(=O)Nc3ccc(S(N)(=O)=O)cc31)cn2C
91
COc1ccc2c(c1)c(/C=C1\C(=O)Nc3ccc(S(=O)(=O)N(C)C)cc31)cn2C
70

A. CN(C)S(=O)(=O)c1ccc2c(c1)/C(=C/c1cn(C)c3ccc(O)cc13)C(=O)N2
B. Cn1cc(/C=C2\C(=O)Nc3ccc(S(N)(=O)=O)cc32)c2ccccc21
Record comparison, field Activity: mark the lower of A and B . Output the label that corresponds to your choice.
A
(A: 68%, B: 108%)

###

# Species on record: Homo sapiens
# protocolNotes: Inhibition of human S6K assessed as residual activity at 0.1 uM relative to control
testReadout: Activity (%)

COc1ccc2c(c1)c(/C=C1\C(=O)Nc3ccc(S(=O)(=O)N(C)C)cc31)cn2C
87
CNS(=O)(=O)c1ccc2c(c1)/C(=C/c1cn(C)c3ccc(OC)cc13)C(=O)N2
96
COc1ccc2c(c1)c(/C=C1\C(=O)Nc3ccc(S(N)(=O)=O)cc31)cn2C
92
Cn1cc(/C=C2\C(=O)Nc3ccc(S(N)(=O)=O)cc32)c2ccccc21
90
COc1ccc2[nH]cc(/C=C3\C(=O)Nc4ccc(S(N)(=O)=O)cc43)c2c1
88
CN(C)S(=O)(=O)c1ccc2c(c1)/C(=C/c1cn(C)c3ccc(O)cc13)C(=O)N2
87

###

# assayTarget: Casein kinase I isoform delta (Homo sapiens) (UniProt P48730)
# Sequence (P48730 whole entry, looked up, canonical isoform): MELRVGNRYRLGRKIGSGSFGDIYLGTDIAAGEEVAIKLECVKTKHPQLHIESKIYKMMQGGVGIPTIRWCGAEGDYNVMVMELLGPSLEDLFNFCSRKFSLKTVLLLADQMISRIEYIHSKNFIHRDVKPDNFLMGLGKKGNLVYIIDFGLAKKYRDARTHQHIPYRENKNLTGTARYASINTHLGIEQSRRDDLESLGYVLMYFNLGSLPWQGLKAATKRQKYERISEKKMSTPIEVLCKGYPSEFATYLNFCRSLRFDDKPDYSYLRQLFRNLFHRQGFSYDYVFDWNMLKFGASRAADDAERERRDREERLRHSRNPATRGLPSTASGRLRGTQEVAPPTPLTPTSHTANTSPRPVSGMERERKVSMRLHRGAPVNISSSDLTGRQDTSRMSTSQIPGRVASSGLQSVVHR
# protocolNotes: Inhibition of human CK1-delta assessed as residual activity at 1 uM relative to control
testReadout: Activity (%)

COc1ccc2c(c1)c(/C=C1\C(=O)Nc3ccc(S(N)(=O)=O)cc31)cn2C
84
COc1ccc2[nH]cc(/C=C3\C(=O)Nc4ccc(S(N)(=O)=O)cc43)c2c1
79
COc1ccc2c(c1)c(/C=C1\C(=O)Nc3ccc(S(=O)(=O)N(C)C)cc31)cn2C
86
CNS(=O)(=O)c1ccc2c(c1)/C(=C/c1cn(C)c3ccc(OC)cc13)C(=O)N2
91
Cn1cc(/C=C2\C(=O)Nc3ccc(S(N)(=O)=O)cc32)c2ccccc21
82
CN(C)S(=O)(=O)c1ccc2c(c1)/C(=C/c1cn(C)c3ccc(O)cc13)C(=O)N2
87

###

# assayTarget: Tyrosine-protein kinase SYK (Homo sapiens) (UniProt P43405)
# protocolNotes: Inhibition of human SYK (1 to 635 residues) assessed as residual activity at 1 uM relative to control
testReadout: Activity (%)

Example entries begin here.
Cn1cc(/C=C2\C(=O)Nc3ccc(S(N)(=O)=O)cc32)c2ccccc21
47
CN(C)S(=O)(=O)c1ccc2c(c1)/C(=C/c1cn(C)c3ccc(O)cc13)C(=O)N2
91

I. COc1ccc2[nH]cc(/C=C3\C(=O)Nc4ccc(S(N)(=O)=O)cc43)c2c1
II. COc1ccc2c(c1)c(/C=C1\C(=O)Nc3ccc(S(=O)(=O)N(C)C)cc31)cn2C
Record comparison, field Activity: mark the lower of I and II . Output the label that corresponds to your choice.
I

###

# assayTarget: Calcium/calmodulin-dependent protein kinase type 1D (Homo sapiens)
# protocolNotes: Inhibition of human CAMK1D assessed as residual activity at 0.1 uM relative to control
testReadout: Activity (%)

COc1ccc2[nH]cc(/C=C3\C(=O)Nc4ccc(S(N)(=O)=O)cc43)c2c1
97
COc1ccc2c(c1)c(/C=C1\C(=O)Nc3ccc(S(=O)(=O)N(C)C)cc31)cn2C
99
CN(C)S(=O)(=O)c1ccc2c(c1)/C(=C/c1cn(C)c3ccc(O)cc13)C(=O)N2
100
COc1ccc2c(c1)c(/C=C1\C(=O)Nc3ccc(S(N)(=O)=O)cc31)cn2C
84
CNS(=O)(=O)c1ccc2c(c1)/C(=C/c1cn(C)c3ccc(OC)cc13)C(=O)N2
90
Cn1cc(/C=C2\C(=O)Nc3ccc(S(N)(=O)=O)cc32)c2ccccc21
106
